Measured IC50 accompanies every entry in the list below.
# target.entity: CDK2/Cyclin E1 (Homo sapiens, UniProt P24941)
# protocol.details: CDK2/Cyclin E1 Biochemical Assay (TR-FRET), 0.060 mM ATP
# settings: 0.15 μM Rb (Ser780)-biotin substrate, pH7.0, 60 min preincubation, 120 min reaction, room temperature
Express your answer in nM, writing the number without its unit.

Previously resolved entries follow.
CC(C)NC(=O)O[C@H]1CC[C@@H](c2cc(Nc3ccc4c(c3F)CN(C3CCC3O)S4(=O)=O)n[nH]2)C1 (single isomer, unassigned) [Example 102] : 5.1
CC(C)NC(=O)O[C@H]1CC[C@@H](c2cc(Nc3ccc4c(c3F)CN(CC3CCNC3=O)S4(=O)=O)n[nH]2)C1 (relative stereo) [Example 110] : 2.7
O=C(NC1CCC(O)CC1)O[C@H]1CC[C@@H](c2cc(Nc3ccc4c(c3F)CNS4(=O)=O)n[nH]2)C1 (single isomer, unassigned) [Example 142] : 1.2
CC(C)NC(=O)O[C@H]1C[C@@H](c2cc(Nc3cc4c(cc3F)S(=O)(=O)NC4)n[nH]2)C1 [Example 397] : 103
CN1c2ccc(Nc3cc([C@@H]4CC[C@H](OC(=O)NC5(C)COC5)C4)[nH]n3)c(F)c2CS1(=O)=O (single isomer, unassigned) [Example 332b] : 3.5
COCC(C)NC(=O)O[C@H]1CC[C@@H](c2cc(Nc3ccc4c(c3F)CS(=O)(=O)N4C3CC3)n[nH]2)C1 (relative stereo) [Example 367] : 1.7
CC1(NC(=O)O[C@H]2CC[C@@H](c3cc(Nc4ccc5c(c4F)CNS5(=O)=O)n[nH]3)C2)CC1 (single isomer, unassigned) [Example 140a] : 1.1
CCCNC(=O)O[C@H]1CC[C@@H](c2cc(Nc3ccc4c(c3F)C(C)NS4(=O)=O)n[nH]2)C1 (single isomer, unassigned) [Example 53d] : 7.1
CCCNC(=O)O[C@H]1CC[C@@H](c2cc(Nc3ccc4c(c3F)CN(CCO)S4(=O)=O)n[nH]2)C1 (relative stereo) [Example 126] : 8.3
Cc1c(Nc2cc([C@@H]3CC[C@H](OC(=O)NC(C)C)C3)[nH]n2)ccc2c1CS(=O)(=O)N2 (relative stereo) [Example 240] : 3

Exercise: So what's the measured IC50 for this one? CC(C)NC(=O)O[C@H]1CC[C@@H](c2cc(Nc3ccc4c(c3F)CN(C3CCN(Cc5ccccc5)C3)S4(=O)=O)n[nH]2)C1 (relative stereo) [Example 87]
Solution: 29

Exercise: Looking for the measured IC50 of CC1NS(=O)(=O)c2ccc(Nc3cc([C@@H]4CC[C@H](OC(=O)NC5(C)CC5)C4)[nH]n3)cc21 (single isomer, unassigned) [Example 322a] , can you help?
Solution: 1.1

---

# target.entity: CDK1/Cyclin B1 (Homo sapiens, UniProt P06493)
# Sequence (P06493 whole entry): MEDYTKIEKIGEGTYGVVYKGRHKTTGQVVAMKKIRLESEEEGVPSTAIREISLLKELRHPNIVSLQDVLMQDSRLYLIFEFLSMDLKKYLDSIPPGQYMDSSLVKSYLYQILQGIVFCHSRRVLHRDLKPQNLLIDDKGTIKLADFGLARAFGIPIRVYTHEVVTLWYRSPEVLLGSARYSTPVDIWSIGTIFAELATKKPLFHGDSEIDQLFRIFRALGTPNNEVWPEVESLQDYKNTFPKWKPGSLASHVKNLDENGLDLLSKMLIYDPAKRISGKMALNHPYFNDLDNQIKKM
# Sequence (P14635 whole entry partner): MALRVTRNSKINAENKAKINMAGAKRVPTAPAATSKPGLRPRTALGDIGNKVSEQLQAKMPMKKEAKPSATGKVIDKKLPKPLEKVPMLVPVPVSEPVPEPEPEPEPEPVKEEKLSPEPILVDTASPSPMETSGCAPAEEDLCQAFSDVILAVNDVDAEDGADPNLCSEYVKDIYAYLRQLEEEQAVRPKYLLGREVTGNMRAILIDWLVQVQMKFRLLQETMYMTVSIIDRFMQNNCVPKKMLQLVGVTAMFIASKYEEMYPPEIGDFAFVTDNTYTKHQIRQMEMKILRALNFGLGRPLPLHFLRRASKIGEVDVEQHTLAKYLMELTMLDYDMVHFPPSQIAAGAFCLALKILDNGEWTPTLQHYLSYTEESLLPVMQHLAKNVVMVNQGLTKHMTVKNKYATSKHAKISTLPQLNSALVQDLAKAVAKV
# protocol.details: CDK1/Cyclin B1 Biochemical Assay (TR-FRET), 0.015 mM ATP
# settings: 0.15 μM Rb (Ser780)-biotin substrate, pH7.0, 60 min preincubation, 120 min reaction, room temperature
observable: IC50 (nM)
// units = nM; emit number, no label

Known IC50 results, listed for orientation:
CN1Cc2c(ccc(Nc3cc([C@@H]4CC[C@H](OC(=O)NCC(C)(C)O)C4)[nH]n3)c2F)S1(=O)=O (relative stereo) : 545
CC(C)NC(=O)O[C@H]1CC[C@@H](c2cc(Nc3ccc4c(c3F)CN(CCN3CCOCC3)S4(=O)=O)n[nH]2)C1 (relative stereo) : 458

Exercise: Give the measured IC50 of CC(C)NC(=O)N[C@H]1CC[C@@H](c2cc(Nc3ccc4c(c3)CNS4(=O)=O)n[nH]2)C1 (relative stereo) .
Solution: 1070

Exercise: Return reported IC50; argument: CC(C)NC(=O)O[C@H]1CC[C@@H](c2cc(Nc3ccc4c(c3F)CS(=O)(=O)N4CCO)n[nH]2)C1 (single isomer, unassigned) [Example 271a]
Solution: 172

Exercise: Requested field: IC50. Item: Cc1c(Nc2cc([C@@H]3CC[C@H](OC(=O)NC(C)C)C3)[nH]n2)ccc2c1CS(=O)(=O)N2C (relative stereo)
Solution: 978

Exercise: I'd like to know its IC50. The compound in question is CC(C)NC(=O)O[C@H]1CC[C@@H](c2cc(Nc3cc4c(cc3F)CNS4(=O)=O)n[nH]2)C1 (single isomer, unassigned) [Example 1a]
Solution: 860

---

Measured pIC50, listed per entry for reference.
# target.entity: CDK1/Cyclin B1 (Homo sapiens)
# protocol.details: CDK1/Cyclin B1 Biochemical Assay (TR-FRET), 0.015 mM ATP
# settings: 0.15 μM Rb (Ser780)-biotin substrate, pH7.0, 60 min preincubation, 120 min reaction, room temperature
# Protocol: CDK2/Cyclin E1 and CDK1/Cyclin B1 Biochemical Assays Compounds disclosed herein were tested for inhibition of CDK2/Cyclin E1 or CDK1/Cyclin B1 kinase in an assay based on the time-resolved fluorescence-resonance energy transfer (TR-FRET) methodology. […] Plates were incubated at room temperature for 60 minutes, and the TR-FRET signals (ex337 nm, em665 nm/620 nm) were recorded on a PHERAstar FSX plate reader (BMG Labtech). […]
Value format note: pIC50 is -log10 of concentration (mol/L); just state the number.

Reference set, count: 5
O=C(NC1(CO)CCC1)O[C@H]1CC[C@@H](c2cc(Nc3ccc4c(c3)CS(=O)(=O)N4)n[nH]2)C1 (relative stereo) : 7.74
CC(NC(=O)O[C@H]1CC[C@@H](c2cc(Nc3ccc4c(c3F)CN(C)S4(=O)=O)n[nH]2)C1)C1COC1 (relative stereo) : 5.76
CC1(NC(=O)O[C@H]2CC[C@@H](c3cc(Nc4cc5c(cc4F)N(CCO)S(=O)(=O)C5)n[nH]3)C2)CC1 (relative stereo) : 6.62
CC(C)NC(=O)O[C@H]1CC[C@@H](c2cc(Nc3ccc4c(n3)CNS4(=O)=O)n[nH]2)C1 (relative stereo) : 7.42
[2H]C([2H])([2H])N1c2c(F)cc(Nc3cc([C@@H]4CC[C@H](OC(=O)N[C@@H](C)CC)C4)[nH]n3)cc2CS1(=O)=O (relative stereo) : 6.71

Exercise: For CC(C)NC(=O)O[C@H]1CC[C@@H](c2cc(Nc3ccc4c(c3F)CN(Cc3ccccc3)S4(=O)=O)n[nH]2)C1 (relative stereo) , what is its reported pIC50?
Solution: 5.97

Exercise: pIC50 lookup needed for CCCNC(=O)O[C@H]1CC[C@@H](c2cc(Nc3ccc4c(c3F)C(C)NS4(=O)=O)n[nH]2)C1 (single isomer, unassigned) [Example 53a] , thanks.
Solution: 6.44

Exercise: Could you share which pIC50 value was measured for CN1c2ccc(Nc3cc([C@@H]4CC[C@H](OC(=O)NC5(C)CCOC5)C4)[nH]n3)c(F)c2CS1(=O)=O (single isomer, unassigned) [Example 349a] ?
Solution: 6.88

Exercise: Reported pIC50, compound CC(C)NC(=O)O[C@H]1CC[C@@H](c2cc(Nc3ccc4c(c3F)CN(C3CCC3)S4(=O)=O)n[nH]2)C1 (relative stereo) : ____
Solution: 6.33

Exercise: // lookup pIC50 for O=C(NC1(CO)CCC1)O[C@H]1CC[C@@H](c2cc(Nc3ccc4c(c3F)CS(=O)(=O)N4)n[nH]2)C1 (relative stereo)
Solution: 7.49

---

# target.entity: CDK2/Cyclin E1 (Homo sapiens, UniProt P24941)
# protocol.details: CDK2/Cyclin E1 Biochemical Assay (TR-FRET), 1 mM ATP
# settings: 0.15 μM Rb (Ser780)-biotin substrate, pH7.0, 60 min preincubation, 90 min reaction, room temperature
Below, each of the compounds is paired with its reported pIC50 value.
Notebook: values listed as pIC50 are -log10 of the concentration (mol/L).

Answered examples (2):
CC1(NC(=O)O[C@@H]2CC[C@H](c3cc(Nc4ccc5c(c4F)CS(=O)(=O)N5)n[nH]3)C2)CCC1 (single isomer, unassigned) [Example 427a] : 8.96
CC(C)(CO)NC(=O)O[C@H]1CC[C@@H](c2cc(Nc3ccc4c(c3F)CS(=O)(=O)N4)n[nH]2)C1 (relative stereo) [Example 443] : 8.80

Exercise: I would be grateful if you could share the reported pIC50 for CC(C)NC(=O)O[C@H]1CC[C@@H](c2cc(Nc3ccc4c(c3F)CS(=O)(=O)N4CC(C)(C)O)n[nH]2)C1 (single isomer, unassigned) [Example 254a] .
Solution: 7.92

Exercise: Could you share which pIC50 value was measured for CN(C(=O)O[C@H]1CC[C@@H](c2cc(Nc3cc4c(cc3F)S(=O)(=O)NC4)n[nH]2)C1)C1CCOC1 (relative stereo) [Example 440] ?
Solution: 6.72

Exercise: pIC50 lookup needed for CC[C@H](C)NC(=O)O[C@H]1CC[C@@H](c2cc(Nc3ccc4c(c3F)CS(=O)(=O)N4CC(C)(C)O)n[nH]2)C1 (relative stereo) [Example 434] , thanks.
Solution: 8.77

Exercise: If you can, please state the reported pIC50 value of O=C(NC1CCOC1)O[C@H]1CC[C@@H](c2cc(Nc3ccc4c(c3F)CS(=O)(=O)N4C3CC3)n[nH]2)C1 (relative stereo) [Example 429] .
Solution: 6.88
